Every entry's value here was drawn from patent US9458198B1.

Target: NPR-B (Homo sapiens)
Construct: a functional assay using endogenously NPR-B expressing GTM-3 cells; endogenous in cells; host or cells: GTM-3 (transformed human trabecular meshwork cells)
Sequence (P20594 23-1047): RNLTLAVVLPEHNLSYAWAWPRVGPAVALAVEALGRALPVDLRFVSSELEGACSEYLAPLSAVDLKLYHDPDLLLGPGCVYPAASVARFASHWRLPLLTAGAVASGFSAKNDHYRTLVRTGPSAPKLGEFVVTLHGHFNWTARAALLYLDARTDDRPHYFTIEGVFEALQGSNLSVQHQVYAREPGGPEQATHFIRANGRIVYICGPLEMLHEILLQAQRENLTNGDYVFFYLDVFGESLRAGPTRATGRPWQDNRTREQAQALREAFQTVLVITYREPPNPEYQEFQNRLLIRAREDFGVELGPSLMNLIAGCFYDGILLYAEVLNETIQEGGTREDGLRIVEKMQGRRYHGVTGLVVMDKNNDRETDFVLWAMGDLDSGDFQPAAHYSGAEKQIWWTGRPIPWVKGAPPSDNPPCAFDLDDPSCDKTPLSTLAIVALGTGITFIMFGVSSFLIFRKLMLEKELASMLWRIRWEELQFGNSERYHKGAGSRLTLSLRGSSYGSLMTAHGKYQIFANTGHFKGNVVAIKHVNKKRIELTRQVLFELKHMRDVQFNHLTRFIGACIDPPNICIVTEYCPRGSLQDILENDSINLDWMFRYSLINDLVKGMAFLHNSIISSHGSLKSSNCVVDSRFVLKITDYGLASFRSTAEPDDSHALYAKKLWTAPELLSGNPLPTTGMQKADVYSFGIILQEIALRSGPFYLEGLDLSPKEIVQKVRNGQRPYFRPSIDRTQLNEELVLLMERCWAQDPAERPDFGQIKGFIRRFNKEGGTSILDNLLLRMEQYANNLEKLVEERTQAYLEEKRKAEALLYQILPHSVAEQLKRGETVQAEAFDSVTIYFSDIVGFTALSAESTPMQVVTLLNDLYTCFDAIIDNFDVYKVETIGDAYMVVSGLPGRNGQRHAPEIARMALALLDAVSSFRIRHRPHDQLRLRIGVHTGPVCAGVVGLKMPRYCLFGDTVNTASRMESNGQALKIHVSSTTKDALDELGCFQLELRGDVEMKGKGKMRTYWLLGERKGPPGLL
Experiment: NPR-B induced production of cyclic GMP in GTM-3 cells
Assay type: cell-based
Conditions: Activity (group): NPR-B activation, EC50 and Emax (CNP = 100%), GTM-3 cells; group needs both EC50 and Emax criteria, checked A then B then C
pEC50: −log10 of the molar value. Where a SMILES comes first, the peptide text is derived from it. Bridges are numbered along the chain shown (N, C = ends). [ ]: non-standard residue; d: D form. The star is where a group is joined. Hexanoyl = CCCCCC(=O)*
ASSAY_METRIC: pEC50

For CCCCCC(=O)N[C@H]1CSSC[C@@H](C(N)=O)NC(=O)[C@H](CO)NC(=O)[C@H]([C@@H](C)CC)NC(=O)[C@H](CCCNC(=N)N)NC(=O)[C@H](CC(=O)O)NC(=O)[C@H]([C@@H](C)CC)NC(=O)[C@@H]2CCCN2C(=O)[C@H](CC(C)C)NC(=O)CNC(=O)[C@H](Cc2ccccc2)NC(=O)[C@H]2CCCN2C1=O [compound 89] (Hexanoyl-C[dP]FGLPIDRISC-NH2; disulfide 1-12) the molecule record lists pEC50 as > 6.00

For CCCCCC(=O)N[C@H]1CSSC[C@@H](C(N)=O)NC(=O)[C@H](CO)NC(=O)[C@H]([C@@H](C)CC)NC(=O)[C@H](CCCNC(=N)N)NC(=O)[C@H](CC(=O)O)NC(=O)[C@H]([C@@H](C)CC)NC(=O)[C@@H]2CCCN2C(=O)[C@H](CC(C)C)NC(=O)CNC(=O)[C@H](Cc2ccccc2)NC(=O)[C@@H](C)NC1=O [compound 88] (Hexanoyl-C[dA]FGLPIDRISC-NH2; disulfide 1-12) the molecule record lists pEC50 as > 6.00

For CC[C@H](C)[C@@H]1NC(=O)[C@H](CCCNC(=N)N)NC(=O)[C@H](CC(=O)O)NC(=O)[C@H](CC(C)C)NC(=O)[C@H](CCCCN)NC(=O)[C@H](CC(C)C)NC(=O)CNC(=O)[C@H](Cc2ccccc2)NC(=O)[C@@H](C)NC(=O)[C@@H](NC(=O)Cc2ccccc2)CSSC[C@@H](C(N)=O)NC(=O)[C@H](CO)NC1=O [compound 69] the molecule record lists pEC50 as > 5.30

For CC[C@H](C)[C@@H]1NC(=O)[C@H](CCCNC(=N)N)NC(=O)[C@H](CC(=O)O)NC(=O)[C@H](CC(C)C)NC(=O)[C@@H]2CCCN2C(=O)[C@H](CC(C)C)NC(=O)CNC(=O)[C@H](Cc2ccccc2)NC(=O)[C@@H](C)NC(=O)[C@@H](NC(=O)[C@@H](N)CCSC)CSSC[C@@H](C(N)=O)NC(=O)[C@H](CO)NC1=O [compound 49] the molecule record lists pEC50 as > 6.00

For CCCCCC(=O)N[C@H]1CSSC[C@@H](C(N)=O)NC(=O)[C@H](CO)NC(=O)[C@H]([C@@H](C)CC)NC(=O)[C@H](CCCNC(=N)N)NC(=O)[C@H](CC(=O)O)NC(=O)[C@H](CC(C)C)NC(=O)[C@@H]2CCCN2C(=O)[C@H](CC(C)C)NC(=O)CNC(=O)[C@H](Cc2ccccc2)NC(=O)[C@@H](C)NC1=O [compound 93] the molecule record lists pEC50 as > 6.00

For CC[C@H](C)[C@@H]1NC(=O)[C@H](CCCNC(=N)N)NC(=O)[C@H](CC(=O)O)NC(=O)[C@H](CC(C)C)NC(=O)[C@H](CCCCN)NC(=O)[C@H](CC(C)C)NC(=O)CNC(=O)[C@H](Cc2ccccc2)NC(=O)[C@@H](C)NC(=O)[C@@H](N)CSSC[C@@H](C(N)=O)NC(=O)[C@H](CO)NC1=O [compound 73] the molecule record lists pEC50 as > 4.82

For CCCCCC(=O)N[C@H]1CSSC[C@@H](C(N)=O)NC(=O)[C@H](CO)NC(=O)[C@H]([C@@H](C)CC)NC(=O)[C@H](CCCNC(=N)N)NC(=O)[C@H](CC(=O)O)NC(=O)[C@H](CC(C)C)NC(=O)[C@@H]2CCCN2C(=O)[C@H](CC(C)C)NC(=O)CNC(=O)[C@H](Cc2ccccc2)NC(=O)[C@H]2CCCN2C1=O [compound 91] (Hexanoyl-C[dP]FGLPLDRISC-NH2; disulfide 1-12) the molecule record lists pEC50 as > 6.00

For CC[C@H](C)[C@@H]1NC(=O)[C@H](CCCNC(=N)N)NC(=O)[C@H](CC(=O)O)NC(=O)[C@H](CC(C)C)NC(=O)[C@H](CCCCN)NC(=O)[C@H](Cc2c[nH]cn2)NC(=O)CNC(=O)[C@H](Cc2ccccc2)NC(=O)[C@H](Cc2c[nH]cn2)NC(=O)[C@@H](NC(=O)[C@@H](N)CCSC)CSSC[C@@H](C(N)=O)NC(=O)[C@H](CO)NC1=O [compound 20] (H-MCHFGHKLDRISC-NH2; disulfide 2-13) the molecule record lists pEC50 as > 5.30

For CC[C@H](C)[C@@H]1NC(=O)[C@H](CCCNC(=N)N)NC(=O)[C@H](CC(=O)O)NC(=O)[C@H](CC(C)C)NC(=O)[C@H](CCCCN)NC(=O)[C@H](CC(C)C)NC(=O)CNC(=O)[C@H](Cc2ccccc2)NC(=O)[C@@H](C)NC(=O)[C@@H](NC(=O)c2ccccc2)CSSC[C@@H](C(N)=O)NC(=O)[C@H](CO)NC1=O [compound 66] the molecule record lists pEC50 as > 5.30

For CC[C@H](C)[C@@H]1NC(=O)[C@H](CCCNC(=N)N)NC(=O)[C@H](CC(=O)O)NC(=O)[C@H](CC(C)C)NC(=O)[C@@H]2CCCN2C(=O)[C@H](CC(C)C)NC(=O)CNC(=O)[C@H](Cc2ccccc2)NC(=O)[C@@H](Cc2c[nH]cn2)NC(=O)[C@@H](NC(=O)[C@@H](N)CCSC)CSSC[C@@H](C(N)=O)NC(=O)[C@H](CO)NC1=O [compound 41] (H-MC[dH]FGLPLDRISC-NH2; disulfide 2-13) the molecule record lists pEC50 as > 5.30

====

target: NPR-B (Homo sapiens); construct: a functional assay using endogenously NPR-B expressing GTM-3 cells; endogenous in cells; host or cells: GTM-3 (transformed human trabecular meshwork cells); assay: NPR-B induced production of cyclic GMP in GTM-3 cells; assay type: cell-based; conditions: Activity (group): NPR-B activation, EC50 and Emax (CNP = 100%)
Where a SMILES comes first, the peptide text is derived from it. Bridges are numbered along the chain shown (N, C = ends). [ ]: non-standard residue; d: D form. The star is where a group is joined. Hexanoyl = CCCCCC(=O)*
ASSAY_METRIC: EC50

For CC[C@H](C)[C@@H]1NC(=O)[C@H](CCCNC(=N)N)NC(=O)[C@H](CC(=O)O)NC(=O)[C@H](CC(C)C)NC(=O)[C@H](CCCCN)NC(=O)[C@H](CC(C)C)NC(=O)CNC(=O)[C@H](Cc2ccccc2)NC(=O)[C@@H](C)NC(=O)[C@@H](NC(=O)CCC(C)C)CSSC[C@@H](C(N)=O)NC(=O)[C@H](CO)NC1=O [compound 64] the molecule record lists EC50 as < 1000 nM

For CCCCCCCC(=O)N[C@H]1CSSC[C@@H](C(N)=O)NC(=O)[C@H](CO)NC(=O)[C@H]([C@@H](C)CC)NC(=O)[C@H](CCCNC(=N)N)NC(=O)[C@H](CC(=O)O)NC(=O)[C@H](CC(C)C)NC(=O)[C@H](CCCCN)NC(=O)[C@H](CC(C)C)NC(=O)CNC(=O)[C@H](Cc2ccccc2)NC(=O)[C@@H](C)NC1=O [compound 68] the molecule record lists EC50 as < 1000 nM

For CCC(=O)N[C@H]1CSSC[C@@H](C(N)=O)NC(=O)[C@H](CO)NC(=O)[C@H]([C@@H](C)CC)NC(=O)[C@H](CCCNC(=N)N)NC(=O)[C@H](CC(=O)O)NC(=O)[C@H](CC(C)C)NC(=O)[C@H](CCCCN)NC(=O)[C@H](CC(C)C)NC(=O)CNC(=O)[C@H](Cc2ccccc2)NC(=O)[C@@H](C)NC1=O [compound 62] the molecule record lists EC50 as < 5000 nM

For CC[C@H](C)[C@@H]1NC(=O)[C@H](CCCNC(=N)N)NC(=O)[C@H](CC(=O)O)NC(=O)[C@H](CC(C)C)NC(=O)[C@H](CCCCN)NC(=O)[C@H](CC(C)C)NC(=O)CNC(=O)[C@H](Cc2ccccc2)NC(=O)[C@@H](C)NC(=O)[C@@H](NC(=O)CCc2ccccc2)CSSC[C@@H](C(N)=O)NC(=O)[C@H](CO)NC1=O [compound 70] the molecule record lists EC50 as < 1000 nM

For CC[C@H](C)[C@@H]1NC(=O)[C@H](CCCNC(=N)N)NC(=O)[C@H](CC(=O)O)NC(=O)[C@H](CC(C)C)NC(=O)[C@H](CCCCN)NC(=O)[C@H](CC(C)C)NC(=O)CNC(=O)[C@H](Cc2ccccc2)NC(=O)[C@@H](C)NC(=O)[C@@H](NC(=O)CC(C)C)CSSC[C@@H](C(N)=O)NC(=O)[C@H](CO)NC1=O [compound 63] the molecule record lists EC50 as < 5000 nM

For CC[C@H](C)[C@@H]1NC(=O)[C@H](CCCNC(=N)N)NC(=O)[C@H](CC(=O)O)NC(=O)[C@H](CC(C)C)NC(=O)[C@H](CCCCN)NC(=O)[C@H](CC(C)C)NC(=O)CNC(=O)[C@H](Cc2ccccc2)NC(=O)[C@@H](C)NC(=O)[C@@H](NC(=O)CCCc2ccccc2)CSSC[C@@H](C(N)=O)NC(=O)[C@H](CO)NC1=O [compound 72] the molecule record lists EC50 as < 1000 nM

For CCCCCC(=O)N[C@H]1CSSC[C@@H](C(N)=O)NC(=O)[C@H](CO)NC(=O)[C@H]([C@@H](C)CC)NC(=O)[C@H](CCCNC(=N)N)NC(=O)[C@H](CC(=O)O)NC(=O)[C@H]([C@@H](C)CC)NC(=O)[C@H](CCCCN)NC(=O)[C@H](CC(C)C)NC(=O)CNC(=O)[C@H](Cc2ccccc2)NC(=O)[C@H]2CCCN2C1=O [compound 92] (Hexanoyl-C[dP]FGLKIDRISC-NH2; disulfide 1-12) the molecule record lists EC50 as < 1000 nM

For CC[C@H](C)[C@@H]1NC(=O)[C@H](CCCNC(=N)N)NC(=O)[C@H](CC(=O)O)NC(=O)[C@H](CC(C)C)NC(=O)[C@H](CCCCN)NC(=O)[C@H](CC(C)C)NC(=O)CNC(=O)[C@H](Cc2ccccc2)NC(=O)[C@@H](C)NC(=O)[C@@H](NC(=O)CCCC(C)C)CSSC[C@@H](C(N)=O)NC(=O)[C@H](CO)NC1=O [compound 67] the molecule record lists EC50 as < 1000 nM

For CCCCCC(=O)N[C@H]1CSSC[C@@H](C(N)=O)NC(=O)[C@H](CO)NC(=O)[C@H]([C@@H](C)CC)NC(=O)[C@H](CCCNC(=N)N)NC(=O)[C@H](CC(=O)O)NC(=O)[C@H](CC(C)C)NC(=O)[C@H](CCCCN)NC(=O)[C@H](CC(C)C)NC(=O)CNC(=O)[C@H](Cc2ccccc2)NC(=O)[C@@H](C)NC1=O [compound 65] the molecule record lists EC50 as < 1000 nM
